Measurement Target: full-length beta-Catenin (Uniprot ID P35222) (Homo sapiens, UniProt P35222)
Construct: 10 nM full-length beta-Catenin (Uniprot ID P35222)
Sequence (P35222 1-781): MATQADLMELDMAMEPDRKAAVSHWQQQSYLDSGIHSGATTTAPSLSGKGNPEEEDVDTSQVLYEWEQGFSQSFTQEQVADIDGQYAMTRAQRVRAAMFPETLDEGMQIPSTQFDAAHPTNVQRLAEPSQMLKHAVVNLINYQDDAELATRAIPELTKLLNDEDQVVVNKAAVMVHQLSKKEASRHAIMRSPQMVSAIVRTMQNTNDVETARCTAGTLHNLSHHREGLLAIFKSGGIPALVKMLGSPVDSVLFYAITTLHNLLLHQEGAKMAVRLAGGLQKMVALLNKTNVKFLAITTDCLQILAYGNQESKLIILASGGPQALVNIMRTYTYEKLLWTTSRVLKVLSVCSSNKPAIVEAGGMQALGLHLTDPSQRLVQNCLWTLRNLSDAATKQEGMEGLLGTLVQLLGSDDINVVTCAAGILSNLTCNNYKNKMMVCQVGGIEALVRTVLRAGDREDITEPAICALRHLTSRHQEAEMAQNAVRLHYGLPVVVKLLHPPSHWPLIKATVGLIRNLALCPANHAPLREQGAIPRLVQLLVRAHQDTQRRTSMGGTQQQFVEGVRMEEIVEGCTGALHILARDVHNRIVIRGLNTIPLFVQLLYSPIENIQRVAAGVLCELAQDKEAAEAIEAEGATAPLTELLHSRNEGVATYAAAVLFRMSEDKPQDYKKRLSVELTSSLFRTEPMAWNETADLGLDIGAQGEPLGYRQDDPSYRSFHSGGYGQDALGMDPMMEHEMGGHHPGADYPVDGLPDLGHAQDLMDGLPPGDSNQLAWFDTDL
Test Name: Fluorescence polarization IC50 (beta-catenin / 5FAM-TCF4 10-53 competition)
Type: binding
Details: read-out: beta-Catenin FP IC50
Bucketed by reported IC50, buckets being one (below 20 nM), two (20 nM to below 50 nM), three (50 nM or more)

CC(=O)N1CCC[C@]12CC=CCCCC1(CCCC=CCCCCOC(=O)N3CC[C@@](C(=O)N[C@@H](Cc4ccsc4)C(=O)N[C@@H](Cc4csc5ccccc45)C(=O)N[C@@H](Cc4c[nH]cn4)C(=O)N[C@H](C)C(N)=O)(C3)NC(=O)[C@H](CC(N)=O)NC(=O)[C@H](Cc3ccccc3)NC(=O)[C@H](C)NC(=O)[C@H](C)NC(=O)[C@H](CC(=O)O)NC(=O)[C@H](CC(=O)O)NC1=O)NC(=O)[C@H](CC(C)(C)C)NC(=O)[C@H](CC(=O)O)NC2=O (stereo partly drawn) [I-833]	one
CC(=O)N1CCC[C@]12CC=CCCCC1(CCCC=CCCCOC(=O)N3CC[C@@](C(=O)N[C@@H](Cc4ccccc4F)C(=O)N[C@@H](Cc4csc5ccccc45)C(=O)N[C@@H](CO)C(N)=O)(C3)NC(=O)[C@H]([C@@H](C)O)NC(=O)[C@H](Cc3ccccc3)NC(=O)[C@H](C)NC(=O)[C@H](C)NC(=O)[C@H](CC(N)=O)NC(=O)[C@H](CC(=O)O)NC1=O)NC(=O)[C@H](CC(C)(C)C)NC(=O)[C@H](CC(=O)O)NC2=O (stereo partly drawn) [I-1024]	two
CC(=O)N1CCC[C@]12CC=CCCCC1(CCCC=CCCCOC(=O)N3CC[C@@](C(=O)N[C@@H](Cc4ccccc4C(F)(F)F)C(=O)N[C@@H](Cc4csc5ccccc45)C(=O)N[C@@H](CCC(N)=O)C(N)=O)(C3)NC(=O)[C@H](CC(N)=O)NC(=O)[C@H](Cc3ccccc3)NC(=O)[C@H](C)NC(=O)[C@H](C)NC(=O)[C@H](CN(CC(=O)O)CC(F)(F)F)NC(=O)[C@H](CC(=O)O)NC1=O)NC(=O)[C@H](CC(C)(C)C)NC(=O)[C@H](CC(=O)O)NC2=O (stereo partly drawn) [I-927]	one
CC(=O)N1CCC[C@]12CC=CCCCC1(CCCC=CCCCOC(=O)N3CC[C@@](C(=O)N[C@@H](Cc4ccsc4)C(=O)N[C@@H](Cc4csc5ccccc45)C(=O)N[C@@H](Cc4c[nH]cn4)C(N)=O)(C3)NC(=O)[C@H](CC(N)=O)NC(=O)[C@H](Cc3ccccc3)NC(=O)[C@H](C)NC(=O)[C@H](C)NC(=O)[C@H](CC(C)C)NC(=O)[C@H](CC(=O)O)NC1=O)NC(=O)[C@H](CC(C)(C)C)NC(=O)[C@H](CC(=O)O)NC2=O (stereo partly drawn) [I-847]	two

Band assignment needed for CC(=O)N1CCC[C@]12CC=CCCCC1(CCCC=CCCCOC(=O)N3CC[C@@](C(=O)N[C@@H](Cc4ccsc4)C(=O)N[C@@H](Cc4csc5ccccc45)C(=O)N[C@@H](CCC(N)=O)C(=O)NCCCCCCN)(C3)NC(=O)[C@H](CC(N)=O)NC(=O)[C@H](Cc3ccccc3)NC(=O)[C@H](C)NC(=O)[C@H](C)NC(=O)[C@H](CC(=O)O)NC(=O)[C@H](CC(=O)O)NC1=O)NC(=O)[C@H](CC(C)(C)C)NC(=O)[C@H](CC(=O)O)NC2=O (stereo partly drawn) [I-882] please.
two

Band assignment needed for CC(=O)N1CCC[C@]12CC=CCCCC1(CCCC=CCCCOC(=O)N3CC[C@@](C(=O)N[C@@H](Cc4ccsc4)C(=O)N[C@@H](Cc4csc5ccccc45)C(=O)N[C@@H](CCC(N)=O)C(N)=O)(C3)NC(=O)[C@H](CC(N)=O)NC(=O)[C@H](Cc3ccccc3)NC(=O)[C@H](CCCCNC(=O)CCc3cc(C(F)(F)F)cc(C(F)(F)F)c3)NC(=O)[C@H](C)NC(=O)[C@H](CC(=O)O)NC(=O)[C@H](CC(=O)O)NC1=O)NC(=O)[C@H](CC(C)(C)C)NC(=O)[C@H](CC(=O)O)NC2=O (stereo partly drawn) [I-883] please.
three

Band assignment needed for CC(=O)N1CCC[C@]12CC=CCCCC1(CCCC=CCCCOC(=O)N3CC[C@@](C(=O)N[C@@H](Cc4ccsc4)C(=O)N[C@@H](Cc4csc5ccccc45)C(=O)N[C@@H](CO)C(N)=O)(C3)NC(=O)[C@H](CCO)NC(=O)[C@H](Cc3ccccc3)NC(=O)[C@H](C)NC(=O)[C@H](C)NC(=O)[C@H](CN(CC(=O)O)CC(F)(F)F)NC(=O)[C@H](CC(=O)O)NC1=O)NC(=O)[C@H](CC(C)(C)C)NC(=O)[C@H](CC(=O)O)NC2=O (stereo partly drawn) [I-959] please.
three

Band assignment needed for CCN(CC(=O)O)C[C@@H]1NC(=O)[C@H](CC(=O)O)NC(=O)C2(CCCC=CCCCOC(=O)N3CC[C@@](C(=O)N[C@@H](Cc4ccsc4)C(=O)N[C@@H](Cc4csc5ccccc45)C(=O)N[C@@H](CO)C(N)=O)(C3)NC(=O)[C@H](CO)NC(=O)[C@H](Cc3ccccc3)NC(=O)[C@H](C)NC(=O)[C@H](C)NC1=O)CCCC=CC[C@]1(CCCN1C(C)=O)C(=O)N[C@@H](CC(=O)O)C(=O)N[C@@H](CC(C)(C)C)C(=O)N2 (stereo partly drawn) [I-975] please.
three

Band assignment needed for CC(=O)N1CCC[C@]12CC=CCCCC1(CCCC=CCCCCOC(=O)N3CC[C@@](C(=O)N[C@@H](Cc4ccsc4)C(=O)N[C@@H](Cc4csc5ccccc45)C(=O)N[C@@H](CCC(N)=O)C(=O)N[C@H](C)C(N)=O)(C3)NC(=O)[C@H](CC(N)=O)NC(=O)[C@H](Cc3ccccc3)NC(=O)[C@H](C)NC(=O)[C@H](C)NC(=O)[C@H](CC(=O)O)NC(=O)[C@H](CC(=O)O)NC1=O)NC(=O)[C@H](CC(C)(C)C)NC(=O)[C@H](CC(=O)O)NC2=O (stereo partly drawn) [I-830] please.
one
